Test system: human hepatocytes
Assay: Hepatocyte stability, human
Format: in vitro ADME
Details: 2 μM, 0.5 million cells/ml, 120 min
Protocol: In this study, human, cynomolgus monkey, beagle dog, wistar hannover rat, and balb/c mouse hepatocyle stability was determined.
Counter-ions that a name gives are not always drawn.
Recorded Metric: % Remaining At T120 (%)
# output: bare number, implied unit %

Q: Dear colleague, please send me the reported % Remaining At T120 for CNS(=O)(=O)Nc1nccc(Cc2c(CN(C)C)c3ccc(OC(=O)N(C)C)cc3oc2=O)c1F [Compound 124] when you can.
Result: 70.3

Q: Consider the compound CCN(C)Cc1c(Cc2cccc(NS(=O)(=O)NC)c2Cl)c(=O)oc2cc(OC(=O)N(C)C)ccc12 [Compound 245] . State its measured % Remaining At T120.
Result: 13.9

Q: Name the recorded % Remaining At T120 of the item CNS(=O)(=O)Nc1cccc(Cc2c(CN(C)C)c3ccc(OC(=O)N(C)C)cc3oc2=O)c1Cl [Compound 274] in your answer.
Result: 47.5

Q: Please report % Remaining At T120 for the following compound: CNS(=O)(=O)Nc1cccc(Cc2c(CN3CCNCC3)c3cc(Cl)c(OC(=O)N(C)C)cc3oc2=O)c1Cl [Compound 256, hydrochloride]
Result: 91.4

Q: Output measured % Remaining At T120 for this item: CNS(=O)(=O)Nc1cccc(Cc2c(CN3CCNCC3)c3ccc(OC(=O)N(C)C)cc3oc2=O)c1Cl [Compound 246, hydrochloride]
Result: 95.3

Q: Provide measured % Remaining At T120 value, entry: CCS(=O)(=O)Nc1cccc(Cc2c(CN3CCNCC3)c3cc(Cl)c(OC(=O)N(C)C)cc3oc2=O)c1Cl [Compound 257, hydrochloride]
Result: 89.1

Q: Given the compound CCN(C)Cc1c(Cc2cccc(NS(=O)(=O)NC)c2F)c(=O)oc2cc(OC(=O)N(C)C)c(F)cc12 [Compound 238] , write its reported % Remaining At T120.
Result: 27.3

Q: Give reported % Remaining At T120 value for CNS(=O)(=O)Nc1cccc(Cc2c(CN(C)C)c3ccc(OC(=O)N(C)C)cc3oc2=O)c1F [Compound 9]
Result: 48.9

Q: Query % Remaining At T120 for CNS(=O)(=O)Nc1cccc(Cc2c(CN(C)C)c3cc(F)c(OC(=O)N(C)C)cc3oc2=O)c1F [Compound 25]
Result: 99.9

Q: # return recorded % Remaining At T120 for entry CCS(=O)(=O)Nc1cccc(Cc2c(CN(C)C)c3ccc(OC(=O)N(C)C)cc3oc2=O)c1F [Compound 120]
Result: 47.4

Q: Quickly give me recorded % Remaining At T120 for CCCS(=O)(=O)Nc1cccc(Cc2c(CN3CCNCC3)c3cc(Cl)c(OC(=O)N(C)C)cc3oc2=O)c1F [Compound 167]
Result: 53.8

Q: Return % Remaining At T120 for the following compound: CNS(=O)(=O)Nc1cccc(Cc2c(CN3CCNCC3)c3cc(F)c(OC(=O)N(C)C)cc3oc2=O)c1F [Compound 134]
Result: 94.7
